molecular target: ABL1 (64-515) (Homo sapiens (Human), UniProt P00519); test: Radio ABL1 (64-515) assay (radiometric filter-binding); assay type: biochemical
Sequence (P00519 64-515): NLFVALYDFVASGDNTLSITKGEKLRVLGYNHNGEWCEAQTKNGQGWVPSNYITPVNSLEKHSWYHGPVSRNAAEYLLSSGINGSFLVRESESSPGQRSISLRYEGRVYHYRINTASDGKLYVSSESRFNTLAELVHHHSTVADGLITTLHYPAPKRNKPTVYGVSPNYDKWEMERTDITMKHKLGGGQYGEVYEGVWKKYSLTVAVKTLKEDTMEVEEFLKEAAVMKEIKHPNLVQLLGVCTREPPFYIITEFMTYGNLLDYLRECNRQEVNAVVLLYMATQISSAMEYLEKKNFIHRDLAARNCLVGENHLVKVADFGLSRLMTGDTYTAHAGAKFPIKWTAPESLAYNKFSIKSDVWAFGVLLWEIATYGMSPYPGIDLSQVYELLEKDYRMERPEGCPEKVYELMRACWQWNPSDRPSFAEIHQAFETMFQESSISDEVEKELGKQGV
pIC50: −log10 of the molar value.
Quantity Measured: pIC50

# Smi, Assay Value
measured = [
    ("O=C(Nc1ccc(OC(F)(F)F)cc1)c1cc(-c2cncnc2)ccn1", 6.19),
    ("Cc1ccc(C(=O)Nc2ccc(OC(F)(F)F)cc2)cc1-c1cccnc1", 8.40),
    ("N#CC1(c2ncc(C(=O)Nc3ccc(OC(F)(F)F)cc3)cc2-c2cncnc2)CCC1", 8.05),
    ("COc1ncc(-c2cc(C(=O)Nc3ccc(OC(F)(F)F)cc3)ccc2C)cn1", 8.52),
]

A: O=C(Nc1ccc(OC(F)(F)F)cc1)c1cccc(-c2cncnc2)c1F
B: O=C(Nc1ccc(OC(F)(F)F)cc1)c1ccc(F)c(-c2cncnc2)c1
C: COc1ccc(C(=O)Nc2ccc(OC(F)(F)F)cc2)cc1-c1ccncc1
## Task Returns the items ordered by pIC50, from maximum to minimum. Thanks in advance for listing the labels in the requested order.
## Result B, C, A
(B: 8.49, C: 8.06, A: 7.44)

From: patent US9315489B2
